The reported measurements were obtained from patent US11878975B2.

- tested system: human TLR9 (Homo sapiens, UniProt Q9NR96)
- Sequence (Q9NR96 26-1032): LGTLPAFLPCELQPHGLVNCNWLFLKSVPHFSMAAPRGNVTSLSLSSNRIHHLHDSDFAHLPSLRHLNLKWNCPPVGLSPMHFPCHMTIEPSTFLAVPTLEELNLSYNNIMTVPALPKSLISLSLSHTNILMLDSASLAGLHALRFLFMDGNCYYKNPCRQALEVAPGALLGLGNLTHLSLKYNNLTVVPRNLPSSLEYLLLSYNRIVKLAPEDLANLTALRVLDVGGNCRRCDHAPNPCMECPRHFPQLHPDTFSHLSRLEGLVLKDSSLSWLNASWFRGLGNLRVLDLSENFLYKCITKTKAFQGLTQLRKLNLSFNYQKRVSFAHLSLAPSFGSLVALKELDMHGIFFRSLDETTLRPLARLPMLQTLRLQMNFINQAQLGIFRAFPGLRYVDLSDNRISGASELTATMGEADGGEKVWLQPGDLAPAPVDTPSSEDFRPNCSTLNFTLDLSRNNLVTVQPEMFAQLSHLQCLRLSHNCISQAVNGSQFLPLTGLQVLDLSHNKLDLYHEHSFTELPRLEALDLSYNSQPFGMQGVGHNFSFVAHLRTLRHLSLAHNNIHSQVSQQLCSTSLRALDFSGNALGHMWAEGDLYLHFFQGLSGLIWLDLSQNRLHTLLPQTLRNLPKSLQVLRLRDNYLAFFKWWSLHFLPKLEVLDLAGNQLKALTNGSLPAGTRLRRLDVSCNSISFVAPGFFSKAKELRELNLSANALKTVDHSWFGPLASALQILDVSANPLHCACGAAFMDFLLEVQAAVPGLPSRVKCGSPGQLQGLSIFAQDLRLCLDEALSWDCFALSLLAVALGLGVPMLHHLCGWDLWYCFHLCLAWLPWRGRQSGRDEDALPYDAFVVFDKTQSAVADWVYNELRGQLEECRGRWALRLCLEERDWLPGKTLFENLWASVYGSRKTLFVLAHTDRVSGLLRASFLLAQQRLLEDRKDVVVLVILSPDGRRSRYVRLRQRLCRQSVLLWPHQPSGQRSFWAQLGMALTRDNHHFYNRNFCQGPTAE
- test description: TLR9 inhibition reporter assay (HEK-Blue cells, SEAP reporter, ODN2006 stimulation)
- experimental conditions: HEK-Blue cells overexpressing human TLR9, SEAP reporter, ODN2006 5 nM
measurement label: IC50 (µM)

// worked examples, IC50 included
> print(dat)
                                   compound  value.reported
1  Cc1cc(-c2[nH]c3ccc(C4CN(CC(C)(C)O)CCO4)cc3c2C(C)C)cc(C)n1 (stereo not shown) [Example 358]            4.84
2  Cc1cc(-c2[nH]c3ccc(C4CCC(N5CCN(C)CC5)CC4)cc3c2C(C)C)cc(C)n1 (single isomer, unassigned) [Example 36]           0.417
3  Cc1c(-c2[nH]c3ccc(C4CC5CN(CC6(C)COC6)CC5C4)cc3c2C(C)C)cn2cnnc2c1C (stereo not shown) [Example 561]            4.68

P. Cc1cc(-c2[nH]c3ccc(C4CN(C)CCO4)cc3c2C(C)C)cn2ncnc12 (stereo not shown) [Example 297]
Q. CCc1c(-c2ccnc(C)c2)[nH]c2ccc(CNC(=O)C3CCN(C)CC3)cc12 [Example 446]
R. Cc1c(-c2[nH]c3ccc(C4CN(C(C)C)C4)cc3c2C(C)C)cn(C)c(=O)c1C [Example 482]
S. COc1cc(-c2[nH]c3ccc(C4CCC(N5C[C@@H](C)O[C@@H](C)C5)CC4)cc3c2C(C)C)cn2ncnc12 (stereo partly shown) [Example 40]
Put the compounds in ascending order of IC50. // list labels; follow requested order
Q, S, P, R
(Q: 0.406 µM, S: 2.51 µM, P: 6.63 µM, R: 10.3 µM)
